# System: NCI-H522 lung
# MEASUREMENT PROTOCOL: NCI-60 one-dose screen, 48 h
# CONDITION DETAILS: 10 µM unless noted
About 83,000 compounds went through this panel and 20% of them were active in at least one assay; those are over-represented in the sample as a whole. Active and inactive are the calls of the source. How the source made its calls: active means growth percent below 10; inactive means the rest.
Please answer using one outcome listed in active, inactive

Query: Could you kindly confirm the outcome this assay logged for O=S(=O)(Nc1ccc(I)cc1F)c1ccc(-c2cnc(C3CC3)o2)cc1 ?
Result: inactive

Query: Could you kindly confirm the outcome this assay logged for C#CC(F)(F)[C@]1(O)CC[C@H]2[C@@H]3CCC4=CC(=O)CCC4=C3[C@@H](c3ccc(C4CC4)cc3)C[C@@]21C ?
Result: active

Query: Could you kindly confirm the outcome this assay logged for Cc1cc2nc3[nH]c4ccccc4c3nc2cc1C ?
Result: inactive

Query: Could you kindly confirm the outcome this assay logged for CC[C@]1(O)C[C@@H]2CN(CCc3c([nH]c4ccccc34)[C@@](C(=O)OC)(c3cc4c(cc3OC)N(C)[C@H]3[C@@](O)(C(N)=O)[C@H](O)[C@]5(CC)[C@@H]6C[C@@H]6CN6CC[C@]43[C@@H]65)C2)C1 ?
Result: active

Query: Could you kindly confirm the outcome this assay logged for C[n+]1ccccc1/C=C/c1ccc2cccc(O)c2n1 ?
Result: inactive

Query: Could you kindly confirm the outcome this assay logged for O=C(/C=C/c1ccc(C(F)(F)F)cc1)Nc1ccc(C=C2c3ccccc3C(=O)c3ccccc32)cc1 ?
Result: inactive

Query: Could you kindly confirm the outcome this assay logged for CC1=CC(C)(C)Nc2ccc(Cc3ccc4c(c3)C(C)=CC(C)(C)N4)cc21 ?
Result: inactive

Query: Could you kindly confirm the outcome this assay logged for CCOc1cc2ncc(C#N)c(Nc3ccc(F)c(Cl)c3)c2cc1NC(=O)CC1CCSS1 (stereo not drawn) ?
Result: active
